- assay text: gradient 5% acetonitrile 3 min, to 50% in 2 min, to 85% in 15 min, held 3 min, 100 µL/min
- condition context: column: Zorbax Extend-C18 2.1 x 50 mm; eluents: water / acetonitrile, 0.1% formic acid
RP-LC retention time for assorted compounds
parameter measured: RP-LC retention time (s)

> print(dat)
                                    compound    parameter.measured  unit.symbol  test.value
 1  CC(C)(C)C(=O)Nc1ccc(C(=O)NCCNC(=O)Nc2ccccc2Cl)cc1  RP-LC retention time            s         738
 2           CN(C)c1cc(C(N)=O)c2cccc(Cl)c2n1  RP-LC retention time            s         638
 3  Cc1ccc2c(c1)NC(=O)c1cc(NC(=O)c3ccccc3Br)ccc1O2  RP-LC retention time            s         846
 4  CCCCOC(=O)C1=CN(Cc2ccccc2)S(=O)(=O)N=C1C  RP-LC retention time            s        1080
 5  CCc1ccc(N2C(=O)C3N=NN(Cc4nc(-c5ccccc5Cl)no4)C3C2=O)cc1 (stereo unspecified)  RP-LC retention time            s        1060
 6  COc1ccc(OC)c(S(=O)(=O)N2CCc3nc(-c4ccc(F)cc4)ncc3C2)c1  RP-LC retention time            s        1050
 7  CC(C)Cn1cc(S(=O)(=O)Nc2cccc(F)c2)c2cccnc21  RP-LC retention time            s         912
 8  O=C(CN1CCN(C(=O)Nc2ccc(Cl)cc2)CC1=O)NCc1ccco1  RP-LC retention time            s         685
 9  O=C(NCc1ccccc1F)C1CCN(C(=O)c2ncn3c2COC(c2ccc(Cl)cc2)C3)CC1 (stereo unspecified)  RP-LC retention time            s         819
10          Cc1cccc2c(C(N)=O)cc(N3CCCC3)nc12  RP-LC retention time            s         570
11  O=C(CCn1cnc2cc(-c3noc(-c4cncc(Br)c4)n3)ccc21)N1CCCCCC1  RP-LC retention time            s         814
12  O=C(NCc1ccccc1F)C1CCN(c2cc(N3CCCCC3)ncn2)CC1  RP-LC retention time            s         680
13  Cc1ccn2c(NC(=O)c3ccc(C)c(C)c3)c(-c3ccc(F)cc3)nc2c1  RP-LC retention time            s         737
14              Cc1cc(NC(=O)c2ccccc2)nc(C)n1  RP-LC retention time            s         667
15  CCC(=O)N1CCc2cc(N3CC(C(=O)N4CCN(C(C)C)CC4)CC3=O)ccc21 (stereo unspecified)  RP-LC retention time            s         580
16  O=C(NCC1CCCO1)c1nnc(-c2ccc(S(=O)(=O)N3CCCCC3)cc2)o1 (stereo unspecified)  RP-LC retention time            s         797

---

- assay text: gradient 5% acetonitrile 3 min, to 50% in 2 min, to 85% in 15 min, held 3 min, 100 µL/min
- condition context: column: Zorbax Extend-C18 2.1 x 50 mm; eluents: water / acetonitrile, 0.1% formic acid
Binning rule for recorded RP-LC retention time: lower (below 800 s), middle (800 s to below 900 s), upper (900 s or more)

> print(dat)
                                    compound  qualitative.label
 1        O=C(NCCc1ccncc1)c1cnn(-c2ccccc2)n1              lower
 2  COc1ccc(OC)c(NC(=O)CSc2nccc(N3CCN(c4cc(C)ccc4C)CC3)n2)c1              upper
 3     Cn1nc(C(=O)NCc2cc(-c3cccs3)on2)ccc1=O              lower
 4  Cc1ccc(-c2nnc(Cc3nc(-c4ccc(F)cc4)no3)o2)cc1              upper
 5  COc1cc(-c2noc(-c3nn(-c4ccc(C)c(C)c4)ccc3=O)n2)cc(OC)c1OC              upper
 6   CN(CC1(C)CCOCC1)C(=O)CCc1c[nH]c2ccccc12              lower
 7       CN1CCN(C(=O)CSc2nccnc2Sc2ccccc2)CC1              lower
 8  CCCn1cc(C(=O)NCCN2CCc3ccccc3C2)c2cccnc21              lower
 9  Cc1cc(F)ccc1NS(=O)(=O)c1cc(-c2[nH]ncc2C(=O)N(C)C)oc1C              lower
10  Cc1ccc(-n2ccnc(NC(=O)Nc3ccc(F)c(Cl)c3)c2=O)cc1C              upper
11  CCOC(=O)c1nc(N(CC)c2cccc(C)c2)c2ccccc2n1              upper
12  COc1ccc(NC(=O)C(C)C2CCN(C(=O)Nc3ccc(F)cc3)CC2)c(OC)c1 (stereo not drawn)             middle
13  COCCN1C(=O)c2ccccc2C(C(=O)Nc2nc(C)c(C)s2)C12CCCC2 (stereo not drawn)             middle

---

- assay text: gradient 5% acetonitrile 3 min, to 50% in 2 min, to 85% in 15 min, held 3 min, 100 µL/min
- condition context: column: Zorbax Extend-C18 2.1 x 50 mm; eluents: water / acetonitrile, 0.1% formic acid
RP-LC retention time for assorted compounds
parameter measured: RP-LC retention time (s)

> print(dat)
                                    compound  test.value
 1  Cc1ccc(-c2nnc(Cc3nc(-c4ccccc4)no3)o2)cc1C        1090
 2  COc1ccc(S(=O)(=O)NCC2Cn3cccc3C(=O)N2C)cc1 (stereo not given)         687
 3  CCOc1ccccc1NC(=O)CSc1cc(N2CCN(c3ccc(OC)cc3)CC2)ncn1        1090
 4                COC(=O)c1c[n+]([O-])ccc1OC         603
 5  CN(CCc1noc(-c2ccc(F)cc2)n1)C(=O)Nc1ccc(F)cc1         864
 6  Cc1ccc(C)c(NC(=O)C2CCN(S(=O)(=O)c3cn(C(C)C)cn3)CC2)c1         767
 7     NC(=O)Cn1c(CNC(=O)c2ccccc2)nc2ccccc21         573
 8  CCc1ccc2[nH]c3c(c(=O)c2c1)CN(CC(=O)NCc1ccc(Cl)cc1)CC3         656
 9  O=C(c1ccc(F)c(F)c1Nc1ccc(I)cc1F)N1CC(O)([C@H]2CCCCN2)C1         822
10  COc1ccccc1CNC(=O)c1cn(C)nc1S(=O)(=O)N1CCC(C)CC1         951
11        CCCS(=O)(=O)N1CCC(OCCOc2cccnc2)CC1         581
12  CCc1cccc(NS(=O)(=O)c2cn(C(C)C)c3ncccc23)c1         946
13  CCC(=O)N1CCc2cc(C(=O)N3CCN(c4ncccn4)CC3)ccc21         697
14  O=C(NCc1ccc(F)cc1)C(=O)NCC1OCCN1C(=O)c1cccs1 (stereo not given)         702
15  Cc1nc2c(ccc3nc(NC(=O)c4cccc(F)c4)sc32)s1         893
16  O=C(NC1CC1)C1CCN(c2nc3ccc(-c4ccsc4)nc3s2)CC1         809
17  O=C(c1ccc2ccnc(N3CCN(c4ccc(Cl)cc4)CC3)c2c1)N1CCCCCC1         986
18  COc1cccc(CNC(=O)C2(C)CCCN(C(=O)Nc3ccc(C)cc3C)C2)c1 (stereo not given)         930
19  Cc1ccc2oc(N3CCN(C(=O)c4ccc(-c5noc(C(C)C)n5)cc4)CC3)nc2n1         685
20  Cc1ccn2c(Nc3ccccc3C)c(-c3cc(Br)ccc3F)nc2c1         814
21  CC(C)OCCCNC(=O)CCc1c(-c2ccc(Br)cc2)nc2ccccn12         652
22  COc1ccc(Cl)cc1NC(=O)Cn1cnc2nc3c(cc2c1=O)CCCC3         798
23   CCOC(=O)Cn1cnc2c(-c3ccc(Br)cc3)csc2c1=O         998
24  O=C(Nc1cccc(OCc2nnc(-c3ccccc3)o2)c1)c1cnccn1         825
25  O=C(Nc1cccc(OCc2nnc(-c3ccc(Cl)cc3)o2)c1)C1CCC1         978

---

- assay text: gradient 5% acetonitrile 3 min, to 50% in 2 min, to 85% in 15 min, held 3 min, 100 µL/min
- condition context: column: Zorbax Extend-C18 2.1 x 50 mm; eluents: water / acetonitrile, 0.1% formic acid
Lab note: cut-off is 700 s. Strictly less in RP-LC retention time is true (1). Exactly 700 s or more is false (0).

> print(dat)
                                   compound  qualitative.label
1  O=C(NCC1COc2ccccc2O1)C(=O)c1c[nH]c2ccccc12 (stereo not drawn)          false (0)
2  CC(=O)Nc1ccc(NC(=O)c2ccc3nc(-c4ccc(Cl)cc4)cn3c2)cc1           true (1)
3  CN(C)C[C@@H]1CN(Cc2ccccc2)C[C@H]1NS(=O)(=O)c1cccnc1           true (1)
4  Cc1oc(-c2[nH]ncc2C(=O)N2CCCC2)cc1S(=O)(=O)NCCCN(C)C           true (1)
5  COCc1nc(C2CCN(S(=O)(=O)c3ccc(C#N)cc3)C2)no1 (stereo not drawn)          false (0)
6  Cc1ccc(-c2csc(-c3cccn3CC(=O)NCc3ccco3)n2)cc1          false (0)
7  CCSc1nc2ccc(NS(=O)(=O)c3ccc(Cl)cc3)cc2s1          false (0)
8                          O=C1COc2cccnc2N1           true (1)
9  COc1ccccc1OCCC1CCN(C(=O)CCS(=O)(=O)c2ccc3c(c2)CCN3C(C)=O)C1 (stereo not drawn)          false (0)
